system tested: KRAS (WT) as expressed in BxPC-3 cells (human) (UniProt P01116)
test details: cell-based or functional assay
Primed or numbered codes have the meaning given here. Where no end group is shown, it is not given here. [ ]: non-standard residue; d: D form. The star is where a group is joined. dPhe(4-Br) = N[C@H](Cc1ccc(Br)cc1)C(=O)O; 2Nal = N[C@@H](Cc1ccc2ccccc2c1)C(=O)O; Palmitoyl = CCCCCCCCCCCCCCCC(=O)*; Cha = N[C@@H](CC1CCCCC1)C(=O)O; Dab = NCC[C@H](N)C(=O)O; Thz′ = not defined here; Phf = not defined here
measured property: pERK WT (BxPC-3 at 4 µM for 12 hours)
Hey, just send me the number, nothing else.

binder	pERK WT (BxPC-3 at 4 µM for 12 hours)
Ac-[Thz′][dK][dY][dF]K(Palmitoyl) (triazole (positions not given here); reading uncertain; also: cyclic via triazole, ring-closing residues not given here, printed as Ac-(Thz)kyf-Lys(Pal)) [Ac-(Thz)kyf-Lys(Pal)]	0.851
Ac-[dW][dK][dY][4‑F‑f]K(Palmitoyl) (triazole (positions not given here); also: cyclic via triazole, ring-closing residues not given here) [Ac-wky(4-F-f)-Lys(Pal)]	1.71
Ac-[dW][Dab][dY][dF]K(Palmitoyl) (triazole (positions not given here); also: cyclic via triazole, ring-closing residues not given here) [Ac-w(Dab)yf-Lys(Pal)]	0.982
Ac-[dW][dK][dPhe(4-Br)][dF]K(Palmitoyl) (triazole (positions not given here); also: cyclic via triazole, ring-closing residues not given here) [Ac-wk(4-Br-f)f-Lys(Pal)]	0.895
Ac-[dW][dK][dY][dPhe(4-Br)]K(Palmitoyl) (triazole (positions not given here); also: cyclic via triazole, ring-closing residues not given here) [Ac-wky(4-Br-f)-Lys(Pal)]	1.09
Ac-[dW][dK][dY][2Nal]K(Palmitoyl) (triazole (positions not given here); also: cyclic via triazole, ring-closing residues not given here) [Ac-wky(2-Nal)-Lys(Pal)]	0.871

[ask] Report pERK WT (BxPC-3 at 4 µM for 12 hours), nothing else, for this binder: Ac-[dW][dK][dY][4‑Cl‑f]K(Palmitoyl) (triazole (positions not given here); also: cyclic via triazole, ring-closing residues not given here) [Ac-wky(4-Cl-f)-Lys(Pal)]
[reply] 1.05

[ask] Report pERK WT (BxPC-3 at 4 µM for 12 hours), nothing else, for this binder: Ac-[dW][dK][dY][Cha]K(Palmitoyl) (triazole (positions not given here); also: cyclic via triazole, ring-closing residues not given here) [Ac-wky(Cha)-Lys(Pal)]
[reply] 1.27

[ask] Report pERK WT (BxPC-3 at 4 µM for 12 hours), nothing else, for this binder: Ac-[dW][dK][dY][Phf]K(Palmitoyl) (triazole (positions not given here); reading uncertain; also: cyclic via triazole, ring-closing residues not given here, printed as Ac-wky(Phf)-Lys(Pal)) [Ac-wky(Phf)-Lys(Pal)]
[reply] 0.757

Data credit: patent US20220323614A1
